- protocol_description: Pharmacokinetics in male hamsters, plasma and lung, IV 3 mg/kg or PO 30 mg/kg
- measurement_context: male, hamster, in vivo, po, 30 mg/kg, Ratio (Lung/Plasma), Compound P3 PO 30 mg/kg, 8 h, individual animals
endpoint_name: Kp at 8 h

// O=C(Nc1ccc([N+](=O)[O-])cc1Cl)c1cc(Cl)ccc1OC(=O)N1CCNCC1 [Compound P3] : Kp at 8 h value = 194

* * *

- protocol_description: Pharmacokinetics in mice IV 3 and PO 10 mg/kg; plasma, lung and liver
- measurement_context: mouse, lung, po, 10 mg/kg
endpoint_name: Cmax (ng/mL)
Express your answer in ng/mL, writing the number without its unit.

response.value for O=C(Nc1ccc([N+](=O)[O-])cc1Cl)c1cc(Cl)ccc1O [Niclosamide, reference compound] (field: Cmax) = 397

* * *

- protocol_description: in vivo
- measurement_context: C57BL/6, mouse, po, 100 mg/kg, tmax, Compound P3 in plasma, PO 100 mg/kg (PO_B), C57BL/6 mice, Mean n = 3
endpoint_name: Tmax (h)
Quick reminder: number only, in h, skip the unit.

Kindly note the recorded Tmax for O=C(Nc1ccc([N+](=O)[O-])cc1Cl)c1cc(Cl)ccc1OC(=O)N1CCNCC1 [Compound P3] , which is 1

* * *

- protocol_description: Pharmacokinetics in mice IV 3 and PO 10 mg/kg; plasma, lung and liver
- measurement_context: mouse, in vivo, po, 10 mg/kg, AUC ratio (tissue/plasma), mice; Compound P3 dosed PO 10 mg/kg; Liver
endpoint_name: Kp
The answer should be written as a number, with no unit following it.

Kp reading for `O=C(Nc1ccc([N+](=O)[O-])cc1Cl)c1cc(Cl)ccc1OC(=O)N1CCNCC1` : 0.19

* * *

- protocol_description: in vitro
- measurement_context: PAMPA, pH 5
endpoint_name: Papp (×10⁻⁶ cm/s)
Only the number, expressed in ×10⁻⁶ cm/s, is required.

CC(C)OC(=O)Oc1ccc(Cl)cc1C(=O)Nc1ccc([N+](=O)[O-])cc1Cl [Compound P6] yielded Papp of 57

* * *

- protocol_description: Pharmacokinetics in male hamsters, plasma and lung, IV 3 mg/kg or PO 30 mg/kg
- measurement_context: male, hamster, in vivo, po, 30 mg/kg, Ratio (Lung/Plasma), Compound P3 PO 30 mg/kg, 2 h, individual animals
endpoint_name: Kp at 2 h
Give the figure by itself; no unit, no explanation.

Record `O=C(Nc1ccc([N+](=O)[O-])cc1Cl)c1cc(Cl)ccc1OC(=O)N1CCNCC1` . Reported Kp at 2 h: 88.6

* * *

Quick list: Efficacy cell viability per entry.
- Tested on: Vero-E6
- protocol_description: Cytotoxicity counter screen (cell viability, CellTiter-Glo)
- Assay type: cell-based
- measurement_context: uninfected Vero-E6, 72 h, CellTiter-Glo
Provide a numeric answer; units are not to be included.

O=C(Oc1ccc(Cl)cc1C(=O)Nc1ccc([N+](=O)[O-])cc1Cl)c1ccccc1 [Compound P7]
−94.0
COCC(=O)Oc1ccc(Cl)cc1C(=O)Nc1ccc([N+](=O)[O-])cc1Cl [Compound P5]
−91.2
O=C(Nc1ccc(C(F)(F)F)cc1)c1cc(Cl)ccc1O [Compound 39]
−94.6

Per the records, this compound ( COc1cc([N+](=O)[O-])ccc1NC(=O)c1cc(Cl)ccc1O [Compound 27] ) has Efficacy cell viability equal to −92.9

# compound O=C(Nc1ccc([N+](=O)[O-])cc1)c1cc(Cl)ccc1O [Compound 24] ; its Efficacy cell viability = −93.1

According to the records, this compound O=C(Oc1ccc(Cl)cc1C(=O)Nc1ccc([N+](=O)[O-])cc1Cl)c1ccc(C(F)(F)F)cc1 [Compound P1] displays Efficacy cell viability of −96.34

Lab note: CC(=O)Oc1ccc(Cl)cc1C(=O)Nc1ccc([N+](=O)[O-])cc1Cl [Compound P4] gave Efficacy cell viability of −93.0

* * *

- protocol_description: Pharmacokinetics in male hamsters, plasma and lung, IV 3 mg/kg or PO 30 mg/kg
- measurement_context: male, hamster, in vivo, iv, 3 mg/kg, Ratio (Lung/Plasma), Mean, Compound P3 IV 3 mg/kg, 0.083 h
endpoint_name: Kp at 0.083 h
// return just the number, without any unit appended

Noted for O=C(Nc1ccc([N+](=O)[O-])cc1Cl)c1cc(Cl)ccc1OC(=O)N1CCNCC1 [Compound P3] : its Kp at 0.083 h reads 33.7

* * *

- protocol_description: Pharmacokinetics in mice IV 3 and PO 10 mg/kg; plasma, lung and liver
- measurement_context: mouse, lung, po, 10 mg/kg
endpoint_name: half-life

half-life reported for this compound O=C(Nc1ccc([N+](=O)[O-])cc1Cl)c1cc(Cl)ccc1O [Niclosamide, reference compound] : 258 min

* * *

- protocol_description: in vivo
- measurement_context: C57BL/6, mouse, po, 50 mg/kg, Cmax, Compound P3 in plasma, PO 50 mg/kg (PO_A), C57BL/6 mice, Mean n = 3
endpoint_name: Cmax
Record the result as a number with its unit.

// `O=C(Nc1ccc([N+](=O)[O-])cc1Cl)c1cc(Cl)ccc1OC(=O)N1CCNCC1` : Cmax value = 1460 ng/mL

* * *

- protocol_description: Pharmacokinetics in mice IV 3 and PO 10 mg/kg; plasma, lung and liver
- measurement_context: mouse, in vivo, po, 10 mg/kg, AUC0-last, mice; Compound P3 dosed PO 10 mg/kg; Lung
endpoint_name: AUC(0-t) (µg·h/mL)
Give the value in µg·h/mL but do not write µg·h/mL after it.

Entry O=C(Nc1ccc([N+](=O)[O-])cc1Cl)c1cc(Cl)ccc1OC(=O)N1CCNCC1 [Compound P3] — recorded AUC(0-t) = 244

* * *

- protocol_description: in vivo
- measurement_context: C57BL/6, mouse, po, 100 mg/kg, t1/2, Compound P3 in plasma, PO 100 mg/kg (PO_B), C57BL/6 mice, Mean n = 3
endpoint_name: half-life (h)
// note: answer is a bare numeric in h

Recorded half-life (molecule O=C(Nc1ccc([N+](=O)[O-])cc1Cl)c1cc(Cl)ccc1OC(=O)N1CCNCC1 [Compound P3] ): 15.3

* * *

- protocol_description: Pharmacokinetics in mice IV 3 and PO 10 mg/kg; plasma, lung and liver
- measurement_context: mouse, liver, po, 10 mg/kg
endpoint_name: AUC(0-t) (ng·h/mL)
Numeric answer only, unit ng·h/mL assumed.

// O=C(Nc1ccc([N+](=O)[O-])cc1Cl)c1cc(Cl)ccc1O [Niclosamide, reference compound] : AUC(0-t) value = 8850

* * *

- protocol_description: Pharmacokinetics in mice IV 3 and PO 10 mg/kg; plasma, lung and liver
- measurement_context: mouse, in vivo, po, 10 mg/kg, Cmax, mice; Compound P3 dosed PO 10 mg/kg; Lung
endpoint_name: Cmax

Cmax reported for this molecule O=C(Nc1ccc([N+](=O)[O-])cc1Cl)c1cc(Cl)ccc1OC(=O)N1CCNCC1 [Compound P3] : 44200 ng/mL

* * *

- protocol_description: in vitro
- measurement_context: PAMPA
# Papp per entry

// known answers, use as guide
CC(=O)Oc1ccc(Cl)cc1C(=O)Nc1ccc([N+](=O)[O-])cc1Cl
632 ×10⁻⁶ cm/s
CCCCCCCC(=O)Oc1ccc(Cl)cc1C(=O)Nc1ccc([N+](=O)[O-])cc1Cl [Compound P2]
< 6.5 ×10⁻⁶ cm/s

# ---- query molecule ----
The molecule listed as O=C(Oc1ccc(Cl)cc1C(=O)Nc1ccc([N+](=O)[O-])cc1Cl)c1ccc(C(F)(F)F)cc1 [Compound P1] shows Papp equal to < 2.6 ×10⁻⁶ cm/s

* * *

- protocol_description: Parallel artificial membrane permeability assay (PAMPA)
- measurement_context: PAMPA, pH 5
endpoint_name: Papp (×10⁻⁶ cm/s)
Form entry: value (×10⁻⁶ cm/s) — number only.

The recorded Papp for `O=C(Nc1ccc([N+](=O)[O-])cc1Cl)c1cc(Cl)ccc1OC(=O)N1CCNCC1` is 500

* * *

- protocol_description: Pharmacokinetics in mice IV 3 and PO 10 mg/kg; plasma, lung and liver
- measurement_context: mouse, in vivo, po, 10 mg/kg, AUC ratio (tissue/plasma), mice; Compound P3 dosed PO 10 mg/kg; Lung
endpoint_name: Kp
Provide a numeric answer; units are not to be included.

Lab book: Kp of `O=C(Nc1ccc([N+](=O)[O-])cc1Cl)c1cc(Cl)ccc1OC(=O)N1CCNCC1` noted as 69
